- TARGET ENTITY: T1, DR3-8i (human)
- T1 construct: also called purified monomeric DR3-8i antigen protein
- T1 chain: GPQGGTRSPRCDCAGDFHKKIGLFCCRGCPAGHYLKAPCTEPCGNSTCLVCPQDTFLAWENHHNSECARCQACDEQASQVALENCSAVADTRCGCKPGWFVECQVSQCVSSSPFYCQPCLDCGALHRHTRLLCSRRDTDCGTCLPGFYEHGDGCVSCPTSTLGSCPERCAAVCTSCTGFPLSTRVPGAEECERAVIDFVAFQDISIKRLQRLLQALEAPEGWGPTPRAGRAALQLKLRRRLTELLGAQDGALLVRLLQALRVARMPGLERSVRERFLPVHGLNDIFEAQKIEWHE
- ASSAY METHOD TEXT: BLI, IgG captured on protein A, DR3-8i in solution; Experiment 2
pKd: −log10 of the molar value.
Each item that follows carries a reported pKd.

BINDER	pKd
VHg1/VLg12 (antibody, human IgG1, V domains shown, human IgG1) VH: QVQLVQSGGGLVQPGGSLRLSCAASGFTFSSYAMSWVRQAPGKGLEWVSTISDGDSYSYFPDSVKDRFTISRDNSKNTLYLQMNSLRAEDTSVYYCARDRIYGSVQYYAMDYWGQGTLVTVSS VL: EIVLTQSPATLSLSPGERATLSCRASESVEFSGTSLMQWYQQKPGQAPRLLIYAASNVESGIPARFSGSGSGTDFTLTISSLEPEDFAVYYCQQSRKLPYTFGQGTKLEIK	10.35
VHg6/VLg4 (antibody, human IgG1, V domains shown, human IgG1) VH: QVQLQQSGGGLVQPGGSLRLSCAASGFTFSSYAMSWVRQAPGKGLEWVATISDGDSYSYFPDSVKDRFTISRDNARNSLYLQMNSLRAEDTAVYYCARDRIYGSVQYYAMDYWGRGTLVTVSS VL: DVVMTQSPDSLAVSLGERATISCRASESVEFSGTSLMQWYQQKPRQPLKLLIYAASNVESGVPDRFSGSGSGTDFTLTISSLQAEDVAVYYCQQSRKLPYTFGQGTRLEIK	9.84
VHg9/VLg11 (antibody, human IgG1, V domains shown, human IgG1) VH: EVQLVESGGGLVKPGGSLRLSCAASGFTFSSYAMSWVRQAPGKGLEWVSTISDGDSYSYFPDSVKDRFTISRDNAKNSLYLQMNSLRAEDTAVYYCARDRIYGSVQYYAMDYWGQGTLVTVSS VL: DIVMTQSPDSLAVSLGERATINCRASESVEFSGTSLMQWYQQKPGQPPKLLIYAASNVESGVPDRFSGSGSGTDFTLTISSLQAEDVAVYYCQQSRKLPYTFGQGTKLEIK	9.74
VHg6/VLg13 (antibody, human IgG1, V domains shown, human IgG1) VH: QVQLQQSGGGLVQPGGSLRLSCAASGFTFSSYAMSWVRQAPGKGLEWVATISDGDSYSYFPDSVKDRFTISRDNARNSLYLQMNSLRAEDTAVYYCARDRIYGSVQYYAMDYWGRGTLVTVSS VL: DIQMTQSPSSLSASVGDRVTITCRASESVEFSGTSLMQWYQQKPGKAPKLLIYAASNVESGVPSRFSGSGSGTDFTFTISSLQPEDIATYYCQQSRKLPYTFGQGTKLEIK	10.02
VHg10/VLg5 (antibody, human IgG1, V domains shown, human IgG1) VH: EVQLVESGGGLVQPGGSLRLSCAASGFTFSSYAMSWVRQAPGKGLEWVSTISDGDSYSYFPDSVKDRFTISRDNSKNTLYLQMNSLRAEDTAVYYCARDRIYGSVQYYAMDYWGQGTLVTVSS VL: EIVLTQSPGTLSLSPGERGTLSCRASESVEFSGTSLMQWYQQKPGQAPRLLIYAASNVESGIPDRFSGSGSETDFTLTISRLEPEDLAVYYCQQSRKLPYTFGQGTRLEIK	9.59
VHg2/VLg11 (antibody, human IgG1, V domains shown, human IgG1) VH: QMQLVQSGGGLVKPGGSLRLSCAASGFTFSSYAMSWIRQAPGKGLEWVSTISDGDSYSYFPDSVKDRFTISRDNAKNSLYLQMNSLRAEDTAVYYCTRDRIYGSVQYYAMDYWGRGTLVTVSS VL: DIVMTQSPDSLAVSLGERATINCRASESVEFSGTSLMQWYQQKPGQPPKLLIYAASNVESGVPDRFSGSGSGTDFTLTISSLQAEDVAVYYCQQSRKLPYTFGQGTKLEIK	10.36
